Biological target: T1, recombinant mouse TfR-1, His-tagged (Sino Biological 50741-M07H) (mouse, UniProt Q62351 89-763)
T1 construct: bought; His-tagged; also called mTfR1; mTfR-1
T1 sequence (Q62351 89-763 limits assumed, stated change not applied): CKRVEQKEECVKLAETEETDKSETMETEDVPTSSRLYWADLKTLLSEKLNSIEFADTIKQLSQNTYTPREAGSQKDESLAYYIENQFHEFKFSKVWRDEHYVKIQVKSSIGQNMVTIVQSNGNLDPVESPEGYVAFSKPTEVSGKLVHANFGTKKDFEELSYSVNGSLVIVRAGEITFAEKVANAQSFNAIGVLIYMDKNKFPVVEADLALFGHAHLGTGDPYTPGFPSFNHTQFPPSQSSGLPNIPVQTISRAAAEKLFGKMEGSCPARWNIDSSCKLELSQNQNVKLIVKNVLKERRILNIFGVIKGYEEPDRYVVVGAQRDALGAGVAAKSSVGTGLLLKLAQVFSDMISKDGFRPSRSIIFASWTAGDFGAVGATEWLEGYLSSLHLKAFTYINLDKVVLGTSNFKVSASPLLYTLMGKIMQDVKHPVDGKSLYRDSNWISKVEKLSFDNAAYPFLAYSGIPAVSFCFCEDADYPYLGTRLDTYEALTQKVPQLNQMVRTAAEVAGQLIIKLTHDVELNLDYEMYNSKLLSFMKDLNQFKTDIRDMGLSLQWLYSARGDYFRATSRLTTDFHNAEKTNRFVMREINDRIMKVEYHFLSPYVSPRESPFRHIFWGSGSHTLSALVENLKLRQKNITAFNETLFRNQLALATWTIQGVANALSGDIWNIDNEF
Assay: SPR, His-captured TfR1
measurement.label: koff (s⁻¹)
Numeric only. Scale: s⁻¹

Clone C variant 14 VNAR-hFc (Fc fusion, not shown: a dimerising Fc or GST) ARVDQTPQTITKETGESLTINCVLRDSNCALSSTYWYRKKSGSTNEENISKGGRYVETVNSGSKSFSLRINDLTVEDSGTYRCNVVQYPQQDRPFWCDVYGDGTAVTVN :: 0.000133
Clone C variant 18 VNAR-hFc (Fc fusion, not shown: a dimerising Fc or GST, also called Clone C v18; Clone C var; 18) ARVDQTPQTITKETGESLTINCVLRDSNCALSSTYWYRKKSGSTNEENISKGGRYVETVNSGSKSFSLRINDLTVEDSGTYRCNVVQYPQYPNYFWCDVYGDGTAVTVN :: 0.000269
Clone C variant 8 VNAR-hFc (Fc fusion, not shown: a dimerising Fc or GST) ARVDQTPQTITKETGESLTINCVLRDSNCALSSTYWYRKKSGSTNEENISKGGRYVETVNSGSKSFSLRINDLTVEDSGTYRCNVVQWPSYNNYFWCDVYGDGTAVTVN :: 0.000432
Clone C variant 1 VNAR-hFc (Fc fusion, not shown: a dimerising Fc or GST) ARVDQTPQTITKETGESLTINCVLRDSNCALSSTYWYRKKSGSTNEENISKGGRYVETVNSGSKSFSLRINDLTVEDSGTYRCNVAQRPSYNNYFWCDVYGDGTAVTVN :: 0.000154
Clone C VNAR-hFc fusion (Fc fusion, not shown: a dimerising Fc or GST, bivalent VNAR-Fc; also called Clone C-hFc) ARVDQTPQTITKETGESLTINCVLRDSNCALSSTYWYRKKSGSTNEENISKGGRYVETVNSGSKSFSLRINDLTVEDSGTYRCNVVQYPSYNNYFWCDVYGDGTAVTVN :: 0.000191

Enquiry: If you can, please state the reported koff value of Clone C variant 11 VNAR-hFc (Fc fusion, not shown: a dimerising Fc or GST) ARVDQTPQTITKETGESLTINCVLRDSNCALSSTYWYRKKSGSTNEENISKGGRYVETVNSGSKSFSLRINDLTVEDSGTYRCNVVQYPHYNNYFWCDVYGDGTAVTVN .
Return: 5.17e-05

Enquiry: Also Clone C variant 15 VNAR-hFc (Fc fusion, not shown: a dimerising Fc or GST) ARVDQTPQTITKETGESLTINCVLRDSNCALSSTYWYRKKSGSTNEENISKGGRYVETVNSGSKSFSLRINDLTVEDSGTYRCNVVQYPQQPNYFWCDVYGDGTAVTVN ?
Return: 2.52e-05

Enquiry: Also Clone C variant 2 VNAR-hFc (Fc fusion, not shown: a dimerising Fc or GST) ARVDQTPQTITKETGESLTINCVLRDSNCALSSTYWYRKKSGSTNEENISKGGRYVETVNSGSKSFSLRINDLTVEDSGTYRCNVLQRPSYNNYFWCDVYGDGTAVTVN ?
Return: 0.000144

Enquiry: Also Clone C variant 19 VNAR-hFc (Fc fusion, not shown: a dimerising Fc or GST) ARVDQTPQTITKETGESLTINCVLRDSNCALSSTYWYRKKSGSTNEENISKGGRYVETVNSGSKSFSLRINDLTVEDSGTYRCNVVQYPRTNNYFWCDVYGDGTAVTVN ?
Return: 0.000287

Enquiry: Also Clone C variant 9 VNAR-hFc (Fc fusion, not shown: a dimerising Fc or GST) ARVDQTPQTITKETGESLTINCVLRDSNCALSSTYWYRKKSGSTNEENISKGGRYVETVNSGSKSFSLRINDLTVEDSGTYRCNVVQWPTLSSPFWCDVYGDGTAVTVN ?
Return: 9.32e-05
